biological target: human calcium receptor (Homo sapiens, UniProt P41180, R990G); construct: expressed in transfected cells; host or cells: HEK 293; assay: increases in [Ca^2+ ]i in HEK-293 cells expressing the human calcium receptor (fura-2 loaded HEK 293/pHuPCaR4.0 cells), % activity; assay type: cell-based; settings: 3300 ng/mL
Sequence (P41180 20-1078 R990G): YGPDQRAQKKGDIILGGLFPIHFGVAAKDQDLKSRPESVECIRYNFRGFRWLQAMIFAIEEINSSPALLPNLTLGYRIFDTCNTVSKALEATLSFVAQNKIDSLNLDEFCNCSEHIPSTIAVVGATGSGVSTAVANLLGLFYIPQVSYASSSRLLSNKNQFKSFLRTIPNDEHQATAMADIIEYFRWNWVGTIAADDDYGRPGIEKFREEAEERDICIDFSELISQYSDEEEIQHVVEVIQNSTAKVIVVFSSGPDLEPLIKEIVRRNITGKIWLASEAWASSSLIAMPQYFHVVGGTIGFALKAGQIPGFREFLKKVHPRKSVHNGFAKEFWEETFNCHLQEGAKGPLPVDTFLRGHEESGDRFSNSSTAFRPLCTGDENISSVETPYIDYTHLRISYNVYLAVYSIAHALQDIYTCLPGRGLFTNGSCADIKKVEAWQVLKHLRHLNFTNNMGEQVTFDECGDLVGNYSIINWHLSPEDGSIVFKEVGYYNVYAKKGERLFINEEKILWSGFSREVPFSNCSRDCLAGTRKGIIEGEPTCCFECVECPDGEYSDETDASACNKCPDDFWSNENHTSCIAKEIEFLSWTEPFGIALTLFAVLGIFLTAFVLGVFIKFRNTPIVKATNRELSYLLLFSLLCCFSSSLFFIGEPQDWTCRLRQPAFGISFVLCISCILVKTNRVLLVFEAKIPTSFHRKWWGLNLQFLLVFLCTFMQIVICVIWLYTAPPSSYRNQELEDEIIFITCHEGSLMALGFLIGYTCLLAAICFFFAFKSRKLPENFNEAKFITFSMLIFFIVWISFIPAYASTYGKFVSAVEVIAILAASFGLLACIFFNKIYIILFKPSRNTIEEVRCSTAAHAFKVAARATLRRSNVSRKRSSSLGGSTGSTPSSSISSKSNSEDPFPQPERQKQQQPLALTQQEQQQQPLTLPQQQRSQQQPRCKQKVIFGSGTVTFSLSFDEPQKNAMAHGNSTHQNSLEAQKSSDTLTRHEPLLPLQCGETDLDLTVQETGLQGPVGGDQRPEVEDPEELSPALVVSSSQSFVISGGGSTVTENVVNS
Endpoint name: % activity (%)

Compound: COc1ccc(CN[C@H](C)c2cccc3ccccc23)c(C)c1C [Compound 17L]
Tgt: human calcium receptor (Homo sapiens, UniProt P41180, R990G)
Unit: %
Value observed: 111
--
Compound: C[C@@H](NCc1ccc(C(C)(C)c2ccccc2)cc1)c1cccc2ccccc12 [Compound 12N]
Tgt: human calcium receptor (Homo sapiens, UniProt P41180, R990G)
Unit: %
Value observed: 115
--
Compound: COc1ccc([C@@H](C)N[C@@H](C)c2cccc(OC)c2)cc1 [Compound 16M]
Tgt: human calcium receptor (Homo sapiens, UniProt P41180, R990G)
Unit: %
Value observed: 130
